Form field: IC50 (one value per entry).
targetDesc: T1, full-length beta-Catenin (Uniprot ID P35222) (Homo sapiens (Human), UniProt P35222 1-781)
T1 construct: The assay protocol says 'full-length beta-Catenin (Uniprot ID P35222)'; also called bCat; B-Catenin
T1 sequence: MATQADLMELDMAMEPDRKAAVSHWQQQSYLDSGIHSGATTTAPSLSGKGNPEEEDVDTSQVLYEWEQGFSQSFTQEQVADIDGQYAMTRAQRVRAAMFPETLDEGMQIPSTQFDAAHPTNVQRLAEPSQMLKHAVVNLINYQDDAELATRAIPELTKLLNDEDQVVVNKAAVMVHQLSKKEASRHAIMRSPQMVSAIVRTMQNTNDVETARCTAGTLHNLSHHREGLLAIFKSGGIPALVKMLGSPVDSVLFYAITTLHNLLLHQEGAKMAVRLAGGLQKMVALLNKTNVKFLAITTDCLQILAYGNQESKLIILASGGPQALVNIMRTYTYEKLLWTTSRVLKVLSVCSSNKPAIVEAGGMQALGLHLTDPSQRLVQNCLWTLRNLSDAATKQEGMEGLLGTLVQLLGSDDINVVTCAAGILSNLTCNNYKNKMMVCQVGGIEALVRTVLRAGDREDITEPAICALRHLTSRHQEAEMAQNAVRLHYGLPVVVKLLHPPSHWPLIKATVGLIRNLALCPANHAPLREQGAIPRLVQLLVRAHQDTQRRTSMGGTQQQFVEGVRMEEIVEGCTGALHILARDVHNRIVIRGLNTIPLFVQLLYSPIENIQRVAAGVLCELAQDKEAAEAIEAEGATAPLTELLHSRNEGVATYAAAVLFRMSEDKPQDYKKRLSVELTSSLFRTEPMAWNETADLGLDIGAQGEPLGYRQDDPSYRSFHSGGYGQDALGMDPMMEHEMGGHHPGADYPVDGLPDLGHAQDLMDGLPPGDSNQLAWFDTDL
testDetails: fluorescence polarization competition; full-length beta-catenin, competitor 5FAM-TCF4(10-53) probe
Starred links: 1 amine or outer side, 2 acyl side, 3 side chain; linkers in the order of their positions; H or OH if unused. Positions of bridges follow the written chain, without caps; N, C: chain ends. Non-standard residues stand in square brackets, D forms with d. Primed or numbered codes have the meaning given here. RdN(3) = (R)-4-(((allyloxy)carbonyl)(methyl)amino)-2-amino-2-methylbutanoic acid, stapling residue, C=CCOC(=O)N(C)CC[C@@](C)(N[*:1])C(=O)[*:2]; RdN″ = (R)-4-(((allyloxy)carbonyl)(methyl)amino)-2-amino-2-methylbutanoic acid (stapling residue), C=CCOC(=O)N(C)CC[C@@](C)(N[*:1])C(=O)[*:2]; RdN = (R)-4-(((allyloxy)carbonyl)(methyl)amino)-2-amino-2-methylbutanoic acid, C=CCOC(=O)N(C)CC[C@@](C)(N[*:1])C(=O)[*:2]; B5(19) = 2-amino-2-(pent-4-en-1-yl)hept-6-enoic acid (bis(4-pentenyl)glycine), C=CCCCC(CCCC=C)(N[*:1])C(=O)[*:2]; S7 = C[C@@](CCCCCC=[*:3])(N[*:1])C(=O)[*:2]; αAllylPro = C=CC[C@@]1(C(=O)O)CCCN1; S8 = C=CCCCCCC[C@](C)(N)C(=O)O; Aib = CC(C)(N)C(=O)O
Numbers only here, please. The scale is µM.

binder: ADIXDEAAFAXFWA (not fully specified; N-terminal acetyl (Ac); RdN at 4 and S7 at 11 (staple RdN-S7 by olefin metathesis); C-terminal amide (NH2), also called Ac-Ala-Asp-Ile-RdN-Asp-Glu-Ala-Ala-Phe-Ala-S7-Phe-Trp-Ala-NH2) [I-154]
IC50, µM: 5
--
binder: ADIXDEAAFAXFWA (not fully specified; N-terminal acetyl (Ac); RdN at 4 and S7 at 11 (staple RdN-S7 by olefin metathesis); C-terminal amide (NH2), also called Ac-Ala-Asp-Ile-RdN-Asp-Glu-Ala-Ala-Phe-Ala-S7-Phe-Trp-Ala-NH2) [I-155]
IC50, µM: 5
--
binder: Ac-[Aib]DI[RdN]DEAAFQ[S7]FW-NH2 (staple 4-11, also called Ac-Aib-Asp-Ile-RdN-Asp-Glu-Ala-Ala-Phe-Gln-S7-Phe-Trp-NH2) [I-147]
IC50, µM: 1.64
--
binder: Ac-[αAllylPro]DA[B5(19)]DEAAFQ[S8]FWH-NH2 (staple 1-4, 4-11, also called Ac-PL3-Asp-Ala-B5-Asp-Glu-Ala-Ala-Phe-Gln-S8-Phe-Trp-His-NH2) [I-178]
IC50, µM: 1.63
--
binder: Ac-ADI[RdN″]DEAAFA[S7]FWH-NH2 (staple 4-11, also called Ac-Ala-Asp-Ile-RdN-Asp-Glu-Ala-Ala-Phe-Ala-S7-Phe-Trp-His-NH2) [I-152]
IC50, µM: 5

Now look at this one.
Query: Sample Ac-ADI[RdN(3)]DEAAFQ[S7]FWA-NH2 (staple 4-11, also called Ac-Ala-Asp-Ile-RdN-Asp-Glu-Ala-Ala-Phe-Gln-S7-Phe-Trp-Ala-NH2) [I-153] — what was its IC50?
Result: 2.14
